Tested on: SN12C renal
Experiment: NCI-60 one-dose screen, 48 h (100 = growth as untreated, 0 = no growth, -100 = all killed)
Recorded Conditions: 10 µM unless noted
Compounds without any hit were thinned out: in the full panel of roughly 83,000, 20% have a hit.
Outcome Measure: growth (%)
Give bare numbers, in %.

Reference set (4 entries):
[[record]]
compound_structure_string = "O=[N+]([O-])c1cccc(/C=N\\Nc2ccccc2)c1"
measurement_target = "SN12C renal"
outcome_measure = "growth"
numeric_value = 74.7

[[record]]
compound_structure_string = "COc1cccc(-c2nn(-c3ccccc3)cc2-c2ccnc(NCCCNS(=O)(=O)c3ccc(C(F)(F)F)cc3)c2)c1"
measurement_target = "SN12C renal"
outcome_measure = "growth"
numeric_value = 23

[[record]]
compound_structure_string = "COc1ccc(-c2c(-c3nc4ccc(N5CCOCC5)cc4[nH]3)[nH]c(C)c2C(C)=O)cc1"
measurement_target = "SN12C renal"
outcome_measure = "growth"
numeric_value = 52.6

[[record]]
compound_structure_string = "COc1ccc(-c2cc(-c3c(C)oc4cc5occc5c(OC)c4c3=O)nc(N)c2C#N)cc1OC"
measurement_target = "SN12C renal"
outcome_measure = "growth"
numeric_value = 77.6


Below are some molecules; for each one, tell me its growth.
1. C=C(C)[C@@H]1CC[C@]2(C(=O)NNC(=O)c3cccnc3)CC[C@]3(C)[C@H](CC[C@@H]4[C@@]5(C)CCCNC(C)(C)[C@@H]5CC[C@]43C)[C@@H]12
2. COc1cnc2c(c1)C(=O)c1c-2n(CCCNC(C)C)c(=O)c2cc([N+](=O)[O-])ccc12

83.7
-54.6

Below are some molecules; for each one, tell me its growth.
1. Cc1cc(N2CCCCC2)nc(N(CCNc2ccnc3cc(Cl)ccc23)Cc2ccco2)n1
2. CC1(C)C(=O)/C(=C\c2cccnc2)C[C@]2(C)[C@H]3CC[C@@H]4[C@@H](C(=O)/C=C/c5ccncc5)CC[C@@]4(C)[C@]3(C)CC[C@@H]12

24
8.09

====

Assignment: determine reported growth for the given compounds.
Test system: T-47D breast
Experiment: NCI-60 one-dose screen, 48 h (100 = growth as untreated, 0 = no growth, -100 = all killed)
Recorded Conditions: 10 µM unless noted
The panel holds about 83,000 compounds, 20% with a hit somewhere; the sample as a whole holds those more often. Active and inactive are the calls of the source. Rule for the calls: active = growth percent below 10; inactive = the rest.

Reference set (5 entries):
[[record]]
compound = "CN(CSc1ccc(Cl)cc1)c1ccc(CSc2ccc(Cl)cc2)cc1"
result = "48.6% (inactive)"

[[record]]
compound = "C[C@@H](Oc1ccc(C(=O)NS(=O)(=O)C(C)(C)C)cc1C(F)(F)F)c1ccc(Oc2ccccc2)cn1"
result = "39% (inactive)"

[[record]]
compound = "CC/C=C\\C[C@H]1CC=C2C(=O)C=C[C@@H]2CC=CCCCC(=O)O[C@@H](CCCCC)CC=C2C(=O)C=C[C@@H]2CC=CCCCC(=O)O[C@@H](CCCCC)CC=C2C(=O)C=C[C@@H]2CC=CCCCC(=O)O[C@@H](CCCCC)CC=C2C(=O)C=C[C@@H]2CC=CCCCC(=O)O1"
result = "29.5% [7.9 µM] (inactive)"

[[record]]
compound = "CC(=O)O[C@@H]1CCN2C(=O)N(C)c3ccccc3[C@@H]2C1"
result = "92.8% (inactive)"

[[record]]
compound = "Cn1cc(-c2csc(-c3cn(CCN)c4ccccc34)n2)c2cccnc21"
result = "20% (inactive)"


Below are some compounds; for each one, tell me its growth.
1. CCCCC(=O)OC1CCCCC1C (centres undefined)
2. Cc1cc2nc3c4cc(Cl)ccc4n(CCN(C)C)c3nc2cc1C
3. Nc1c2c(nc3ccc(Br)cc13)CC(c1ccccc1)CC2=O (centres undefined)
4. O=C1NC(c2ccc(Cl)c(Cl)c2)=C/C1=C\c1ccccc1

["95.2% (inactive)", "30.5% (inactive)", "43.1% (inactive)", "12.5% (inactive)"]
